Assay: chemical genetic growth profiling, strain panel (AID 1159580);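 note: tested at 20 µM; growth read once vehicle control cultures reached saturation at 30 °C; 1 = growth at the plate median or of vehicle wells; lower values mean less growth of the strain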
Conditions: S. cerevisiae deletion strains, growth OD, locus YOR144C, strain elg1, stronger effect = lower value
About 2,000 (36%) of roughly 5,500 compounds were called active. Not shown: some 18% with an inconclusive outcome. Some of the results follow.
What normalized growth was measured for each of the following?
Format: numeric value only, no unit, no commentary.

Note normalized growth for the compound shown: Cc1cccc(C)c1NC(=O)C1CCCCN1C (centres undefined)
1.01

Identify normalized growth associated with the compound COC(=O)/C(C)=C\CC12OC(C)(C)C3CC(C=C4C(=O)c5c(OC)c6c(c(CC=C(C)C)c5OC431)OC(C)(CCC=C(C)C)C=C6)C2=O (centres undefined)
0.995

Identify normalized growth associated with the compound Clc1ccc(COC(Cn2ccnc2)c2ccc(Cl)cc2Cl)c(Cl)c1 (centres undefined)
0.0556

Return value of normalized growth for input Clc1ccc(CSC(Cn2ccnc2)c2ccc(Cl)cc2Cl)cc1 (centres undefined) , no commentary.
0.0562
